- EXPERIMENTAL_TARGET: Mtb MraY (phospho-MurNAc-pentapeptide translocase, translocase I) (Mycobacterium tuberculosis)
- Sequence (P9WMW7 1-359): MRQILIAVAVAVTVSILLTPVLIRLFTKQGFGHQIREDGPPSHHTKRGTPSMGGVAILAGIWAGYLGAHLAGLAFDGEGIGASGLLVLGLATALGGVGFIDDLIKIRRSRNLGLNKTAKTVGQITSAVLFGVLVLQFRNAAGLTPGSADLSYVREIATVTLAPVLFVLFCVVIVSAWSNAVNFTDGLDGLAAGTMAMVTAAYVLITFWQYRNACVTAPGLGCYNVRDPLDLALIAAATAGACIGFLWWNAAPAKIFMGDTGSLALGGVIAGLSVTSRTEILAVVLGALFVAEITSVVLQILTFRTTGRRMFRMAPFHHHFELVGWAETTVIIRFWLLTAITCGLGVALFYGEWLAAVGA

[
  {
    "SMILES": "CO[C@H]1[C@@H](O)[C@H](n2ccc(=O)[nH]c2=O)O[C@@H]1[C@@H](O[C@H]1OC(C(=O)N[C@H]2CCCCNC2=O)=C[C@H](O)[C@@H]1O)C(N)=O",
    "UNITS_TEXT": "µM",
    "IC50": 0.018
  }
]
